- tested.target: B2 bradykinin receptor (Homo sapiens, UniProt P30411)
- Sequence (P30411 whole entry): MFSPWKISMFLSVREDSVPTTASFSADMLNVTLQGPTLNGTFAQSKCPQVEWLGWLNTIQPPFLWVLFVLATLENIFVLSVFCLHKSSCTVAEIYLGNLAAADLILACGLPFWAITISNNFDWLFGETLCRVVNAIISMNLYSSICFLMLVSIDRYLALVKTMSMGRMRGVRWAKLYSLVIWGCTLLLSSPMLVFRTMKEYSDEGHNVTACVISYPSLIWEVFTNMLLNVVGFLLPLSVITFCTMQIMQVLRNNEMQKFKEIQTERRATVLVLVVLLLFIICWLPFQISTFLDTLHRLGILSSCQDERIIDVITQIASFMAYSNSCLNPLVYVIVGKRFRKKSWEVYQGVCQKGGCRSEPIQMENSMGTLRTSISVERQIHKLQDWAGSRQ
- protocol.notes: Displacement of [3H]BK from human bradykinin B2 receptor transfected in CHO cells
result.type: Ki (nM)

> print(dat)
                                  structure  result.type  recorded.value
1  Cc1cc(C)c2cccc(OCc3c(Cl)ccc(S(=O)(=O)NC4(C(=O)N5CCN(C(=O)[C@@H](N)CCCCN(C)C)CC5)CCCC4)c3Cl)c2n1           Ki            1.58

a: Cc1cc(C)c2cccc(OCc3c(Cl)ccc(S(=O)(=O)NC4(C(=O)N5CCN(C(=O)[C@@H](N)CCC[N+](C)(C)C)CC5)CCSCC4)c3Cl)c2n1
b: Cc1cc(C)c2cccc(OCc3c(Cl)ccc(S(=O)(=O)NC4(C(=O)N5CCN(C(=N)NCCC[N+](C)(C)C)CC5)CCCC4)c3Cl)c2n1
Problem: Field: lower recorded Ki (choose a or b ) Write down the label of the entry you select.
Result: a
(a: 0.0501 nM, b: 0.398 nM)

* * *

- tested.target: B2 bradykinin receptor (Homo sapiens, UniProt P30411)
- protocol.notes: Antagonist potency at human bradykinin B2 receptor assessed as effect on inositol monophosphate accumulation in CHOdhfr- cells
- Type: functional, cell-based
- measurement.conditions: read-out: pA2 (converted)
result.type: Kb (nM)

> print(dat)
                                  structure  recorded.value
1  Cc1cc(C)c2cccc(OCc3c(Cl)ccc(S(=O)(=O)NC4(C(=O)N5CCN(C(=O)[C@@H](N)CC[N+](C)(C)C)CC5)CCCC4)c3Cl)c2n1               2

1: Cc1cc(C)c2cccc(OCc3c(Cl)ccc(S(=O)(=O)NC4(C(=O)N5CCN(C(=N)NCCC[N+](C)(C)C)CC5)CCCC4)c3Cl)c2n1
2: Cc1cc(C)c2cccc(OCc3c(Cl)ccc(S(=O)(=O)NC4(C(=O)N5CCN(C(=O)[C@H](CCCCNC(=N)N)[N+](C)(C)C)CC5)CCCC4)c3Cl)c2n1
Problem: Please state the entry with greater Kb among 1 and 2 . Write down the label of the entry you select.
Result: 1

* * *

- tested.target: B2 bradykinin receptor (Homo sapiens)
- protocol.notes: Antagonist potency at human bradykinin B2 receptor assessed as effect on inositol monophosphate accumulation in CHOdhfr- cells
- Assay type: functional, cell-based
- measurement.conditions: read-out: pA2 (converted)
result.type: Kb (nM)

A: Cc1cc(C)c2cccc(OCc3c(Cl)ccc(S(=O)(=O)NC4(C(=O)N5CCN(C(=O)[C@H](CCC[N+](C)(C)C)[N+](C)(C)C)CC5)CCCC4)c3Cl)c2n1
B: Cc1cc(C)c2cccc(OCc3c(Cl)ccc(S(=O)(=O)NC(C)(C)C(=O)N4CCN(C(=O)[C@@H](N)CCCCNC(=N)N)CC4)c3Cl)c2n1
Problem: Please state the entry with greater Kb among A and B . Write down the label of the entry you select.
Result: A

P: Cc1cc(C)c2cccc(OCc3c(Cl)ccc(S(=O)(=O)NC4(C(=O)N5CCN(C(=O)[C@@H](N)CCC[N+](C)(C)C)CC5)CCN(C)CC4)c3Cl)c2n1
Q: Cc1cc(C)c2cccc(OCc3c(Cl)ccc(S(=O)(=O)NC4(C(=O)N5CCN(C(=O)[C@H](CCCC[N+](C)(C)C)[N+](C)(C)C)CC5)CCCC4)c3Cl)c2n1
R: CC(=O)N1CCC(NS(=O)(=O)c2ccc(Cl)c(COc3cccc4c(C)cc(C)nc34)c2Cl)(C(=O)N2CCN(C(=O)[C@@H](N)CCC[N+](C)(C)C)CC2)CC1
Problem: # rank by Kb, ascending (min first) Give the labels in the order specified.
Result: P, R, Q
(P: 0.251 nM, R: 1.26 nM, Q: 6.31 nM)

P: Cc1cc(C)c2cccc(OCc3c(Cl)ccc(S(=O)(=O)N4CCC[C@@H]4C(=O)NCCCNC(=O)c4ccc(C(=N)N)cc4)c3Cl)c2n1
Q: Cc1cc(C)c2cccc(OCc3c(Cl)ccc(S(=O)(=O)NC4(C(=O)N5CCN(C(=O)[C@@H](N)CCCCNC(=N)N)CC5)CCCC4)c3Cl)c2n1
R: Cc1cc(C)c2cccc(OCc3c(Cl)ccc(S(=O)(=O)NC4(C(=O)N5CCN(C(=O)[C@@H](N)CCCCN)CC5)CCCC4)c3Cl)c2n1
S: Cc1cc(C)c2cccc(OCc3c(Cl)ccc(S(=O)(=O)NC4(C(=O)N5CCN(C(=O)C[C@H](CCCN)[N+](C)(C)C)CC5)CCCC4)c3Cl)c2n1
Problem: # rank by Kb, ascending (min first) Give the labels in the order specified.
Result: Q, P, S, R

a: Cc1cc(C)c2cccc(OCc3c(Cl)ccc(S(=O)(=O)NC4(C(=O)N5CCN(C(=O)C[N+](C)(C)C)CC5)CCCC4)c3Cl)c2n1
b: Cc1cc(C)c2cccc(OCc3c(Cl)ccc(S(=O)(=O)NC4(C(=O)N5CCN(C(=O)C[C@@H](N)CCCN)CC5)CCCC4)c3Cl)c2n1
Problem: Field: lower recorded Kb (choose a or b ) Write down the label of the entry you select.
Result: b

Source listed as ChEMBL document CHEMBL1141405.
